# system.name: human V1a receptor (Homo sapiens, UniProt P37288)
# Sequence (P37288 whole entry): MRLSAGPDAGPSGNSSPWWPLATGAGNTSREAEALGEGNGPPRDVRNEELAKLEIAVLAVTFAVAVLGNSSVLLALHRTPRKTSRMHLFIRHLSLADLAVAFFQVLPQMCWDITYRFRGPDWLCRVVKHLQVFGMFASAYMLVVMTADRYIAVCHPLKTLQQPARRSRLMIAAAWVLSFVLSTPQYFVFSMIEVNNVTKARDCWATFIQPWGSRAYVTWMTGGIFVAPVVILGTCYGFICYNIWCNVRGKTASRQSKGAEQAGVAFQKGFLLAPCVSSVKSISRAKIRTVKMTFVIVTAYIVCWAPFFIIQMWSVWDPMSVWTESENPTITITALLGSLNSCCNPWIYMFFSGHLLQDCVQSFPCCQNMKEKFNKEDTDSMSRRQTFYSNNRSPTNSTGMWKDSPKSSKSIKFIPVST
# experimental.details: Cellular in vitro assay for determining vasopressin receptor activity, V1a receptor cell line (photoprotein luminescence)
# Format: cell-based
# measurement.conditions: CHO cell line transfected with the human V1a receptor; agonist [Arg8]-vasopressin at EC50 concentration; read-out: IC50 hV1a
pIC50: −log10 of the molar value.
measurement.name: pIC50

NC(CNc1nc(Cn2nc(-c3ccc(Cl)cc3)n(C[C@H](O)C(F)(F)F)c2=O)nn1-c1ccccc1Cl)C(F)(F)F (mixture of isomers) [Example 6] = 9.41

1 = CC(C)(CNc1nc(Cn2nc(-c3ccc(Cl)cc3)n(C[C@H](O)C(F)(F)F)c2=O)nn1-c1ccccc1Cl)NS(C)(=O)=O [Example 26]
2 = CC(C)(N)CNc1nc(Cn2nc(-c3ccc(Cl)cc3)n(C[C@H](O)C(F)(F)F)c2=O)nn1-c1ncccc1F [Example 92]
Challenge: Quick check, higher pIC50 between 1 and 2 ? Please indicate the selected item by its label.
Response given: 1
(1: 9.40, 2: 7.38)
